The reader will find reported pIC50 values listed item by item below.
- System: Hela cells
- METHOD SUMMARY: MTT cytotoxicity assay, Hela
- Assay type: cell-based, human
- DETAILS: Homo sapiens, HeLa, 48 h, mean ± SD
pIC50: −log10 of the molar value.

CPD SMILES: CC[C@]1(O)C[C@@H]2CN(CCc3c([nH]c4ccccc34)[C@@](C(=O)OC)(c3cc4c(cc3OC)N(C)[C@H]3[C@@](O)(C(=O)OC)[C@H](OC(C)=O)[C@]5(CC)C=CCN6CC[C@]43[C@@H]65)C2)C1
pIC50: 10.70

CPD SMILES: CN1CCc2cc3c(cc2C(=O)Cc2ccc4c(c2C1)OCO4)OCO3
pIC50: 4.56

CPD SMILES: COc1ccc2c(c1OC)C(=O)O[C@@H]2[C@H]1c2c(cc3c(c2OC)OCO3)CCN1C
pIC50: 4.77

CPD SMILES: CN1Cc2c(ccc3c2OCO3)[C@@H]2[C@H]1c1cc3c(cc1C[C@@H]2O)OCO3
pIC50: 5.95

====

- Test system: Hela cells
- METHOD SUMMARY: MTT cytotoxicity assay, Hela
- Assay type: cell-based, human
- DETAILS: Homo sapiens, HeLa, 48 h, mean ± SD

CPD SMILES: CC(=O)O[C@H]1C(=O)[C@@]2(C)[C@H]([C@H](OC(=O)c3ccccc3)[C@]3(O)C[C@H](OC(=O)[C@H](O)[C@@H](NC(=O)c4ccccc4)c4ccccc4)C(C)=C1C3(C)C)[C@]1(OC(C)=O)CO[C@@H]1C[C@@H]2O
IC50, nM: 0.08
--
CPD SMILES: COc1ccc2c(c[n+](C)c3c4cc5c(cc4ccc23)OCO5)c1OC
IC50, nM: 3850
--
CPD SMILES: COC(=O)C[C@](O)(CCCC(C)(C)O)C(=O)O[C@@H]1C(OC)=C[C@]23CCCN2CCc2cc4c(cc2[C@H]13)OCO4
IC50, nM: 9.03
--
CPD SMILES: C[n+]1cc2c3c(ccc2c2ccc4cc5c(cc4c21)OCO5)OCO3
IC50, nM: 1030

====

- TARGET DESC: tubulin plus microtubule-associated proteins (MAPs) from porcine brains (Sus scrofa, UniProt P02550+P02554)
- Construct: prepared from porcine brains (freshly obtained from a local slaughter house) by two cycles of polymerization and depolymerization; from tissue; host or cells: porcine brain
- Sequence (P02550 whole entry): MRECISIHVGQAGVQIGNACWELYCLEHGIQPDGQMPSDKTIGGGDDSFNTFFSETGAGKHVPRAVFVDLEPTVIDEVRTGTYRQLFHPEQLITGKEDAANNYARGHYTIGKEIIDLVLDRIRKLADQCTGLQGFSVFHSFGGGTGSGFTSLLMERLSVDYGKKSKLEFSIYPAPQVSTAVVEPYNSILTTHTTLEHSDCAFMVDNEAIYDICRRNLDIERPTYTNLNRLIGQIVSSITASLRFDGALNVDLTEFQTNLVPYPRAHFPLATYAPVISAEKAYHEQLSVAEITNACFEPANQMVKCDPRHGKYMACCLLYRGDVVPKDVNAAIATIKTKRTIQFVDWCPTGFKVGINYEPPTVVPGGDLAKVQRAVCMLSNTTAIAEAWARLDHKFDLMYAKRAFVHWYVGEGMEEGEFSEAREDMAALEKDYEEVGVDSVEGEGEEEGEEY
- Sequence (P02554 whole entry): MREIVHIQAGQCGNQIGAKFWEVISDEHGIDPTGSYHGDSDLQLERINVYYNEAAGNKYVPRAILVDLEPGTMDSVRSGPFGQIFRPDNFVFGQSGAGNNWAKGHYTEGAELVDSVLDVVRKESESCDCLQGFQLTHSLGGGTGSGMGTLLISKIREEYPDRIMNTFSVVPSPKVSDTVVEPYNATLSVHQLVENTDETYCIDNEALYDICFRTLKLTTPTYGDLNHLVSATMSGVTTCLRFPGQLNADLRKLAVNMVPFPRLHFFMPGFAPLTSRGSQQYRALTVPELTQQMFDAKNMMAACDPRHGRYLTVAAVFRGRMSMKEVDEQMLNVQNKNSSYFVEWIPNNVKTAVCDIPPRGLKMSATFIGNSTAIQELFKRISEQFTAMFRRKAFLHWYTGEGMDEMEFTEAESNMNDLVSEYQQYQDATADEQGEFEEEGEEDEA
- METHOD SUMMARY: In vitro tubulin polymerization assay (light scattering at 360 nm)
- Type: biochemical
- DETAILS: 5.6 mg/mL tubulin-MAPs, 37 °C, 40 min, mean ± SD; read-out: IC50 inhibition of tubulin polymerization in vitro

CPD SMILES: CN1Cc2c(ccc3c2OCO3)[C@@H]2[C@H]1c1cc3c(cc1C[C@@H]2O)OCO3
RESULT UNITS: µM
IC50: 34.5
//
CPD SMILES: CC(=O)O[C@H]1C(=O)[C@@]2(C)[C@H]([C@H](OC(=O)c3ccccc3)[C@]3(O)C[C@H](OC(=O)[C@H](O)[C@@H](NC(=O)c4ccccc4)c4ccccc4)C(C)=C1C3(C)C)[C@]1(OC(C)=O)CO[C@@H]1C[C@@H]2O
RESULT UNITS: µM
IC50: 38.2
//
CPD SMILES: COc1ccc2c(c[n+](C)c3c4cc5c(cc4ccc23)OCO5)c1OC
RESULT UNITS: µM
IC50: 206
//
CPD SMILES: CC[C@]1(O)C[C@@H]2CN(CCc3c([nH]c4ccccc34)[C@@](C(=O)OC)(c3cc4c(cc3OC)N(C)[C@H]3[C@@](O)(C(=O)OC)[C@H](OC(C)=O)[C@]5(CC)C=CCN6CC[C@]43[C@@H]65)C2)C1
RESULT UNITS: µM
IC50: 1.42
//
CPD SMILES: C[n+]1cc2c3c(ccc2c2ccc4cc5c(cc4c21)OCO5)OCO3
RESULT UNITS: µM
IC50: 48.4

====

- System: U2OS cells
- METHOD SUMMARY: MTT cytotoxicity assay, U2OS
- Assay type: cell-based, human
- DETAILS: Homo sapiens, U2OS, 48 h, mean ± SD
- Experimental: The anti-proliferative effects of alkaloids were assessed using the MTT assay, as previously described. In brief, 1 × 10^4 cells were seeded in 96-well-plates and incubated with serial dilutions of alkaloids for 48 h (Hela, U2OS) and 72 h (MCF-7). MTT solution was then added and incubated for 2 h. After the addition of DMSO, the plate was read at 570 nm using the Tecan infinite M200 Pro (Tecan, Crailsheim, Germany). All experiments were performed at least three times. […]
pIC50: −log10 of the molar value.
The reader will find reported pIC50 values listed item by item below.

CPD SMILES: CN1CCc2cc3c(cc2C(=O)Cc2ccc4c(c2C1)OCO4)OCO3
pIC50: 4.21
--
CPD SMILES: COc1ccc2c(c1OC)C(=O)O[C@@H]2[C@H]1c2c(cc3c(c2OC)OCO3)CCN1C
pIC50: 4.22
--
CPD SMILES: COC(=O)C[C@](O)(CCCC(C)(C)O)C(=O)O[C@@H]1C(OC)=C[C@]23CCCN2CCc2cc4c(cc2[C@H]13)OCO4
pIC50: 8.52
--
CPD SMILES: CC[C@]1(O)C[C@@H]2CN(CCc3c([nH]c4ccccc34)[C@@](C(=O)OC)(c3cc4c(cc3OC)N(C)[C@H]3[C@@](O)(C(=O)OC)[C@H](OC(C)=O)[C@]5(CC)C=CCN6CC[C@]43[C@@H]65)C2)C1
pIC50: 10.00
